# Tested on: PPARg:RXRa 90nM:30nM, anti-RXR (NR concentration 90 nM, RXRa partner concentration 30 nM)
# MEASUREMENT_PROTOCOL: PBM binding z-score (relative to random genomic background probes); higher = stronger binding; sequences stand for … in GC…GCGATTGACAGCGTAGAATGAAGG
Response key: T means PBM binding z-score >= 2; F means PBM binding z-score < 2.

>>> df
                             sequence  class_assignment
0  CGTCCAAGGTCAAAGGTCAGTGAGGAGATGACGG                 T
1  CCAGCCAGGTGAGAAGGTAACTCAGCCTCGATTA                 F
2  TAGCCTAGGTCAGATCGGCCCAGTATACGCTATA                 F
3  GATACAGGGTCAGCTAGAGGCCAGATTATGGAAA                 F
4  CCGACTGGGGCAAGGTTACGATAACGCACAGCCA                 T

*Q* Hi team, for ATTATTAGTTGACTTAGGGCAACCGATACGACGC , is the recorded PBM binding z-score at or above 2?
*A* F

*Q* What do we get for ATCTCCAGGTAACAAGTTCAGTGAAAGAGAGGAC ?
*A* F

*Q* What do we get for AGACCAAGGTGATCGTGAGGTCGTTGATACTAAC ?
*A* F

*Q* What do we get for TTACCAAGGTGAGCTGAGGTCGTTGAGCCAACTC ?
*A* F

*Q* What do we get for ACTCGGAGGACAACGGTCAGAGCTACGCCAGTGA ?
*A* F

----------
# System: PPARg homodimer (NR concentration 180 nM)
# MEASUREMENT_PROTOCOL: PBM binding z-score (relative to random genomic background probes); higher = stronger binding; sequences stand for … in GC…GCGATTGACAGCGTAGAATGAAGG
Response key: rule met means PBM binding z-score >= 1; rule not met means PBM binding z-score < 1.

Worked cases, answers included:
>>> df
                             sequence  class_assignment
0  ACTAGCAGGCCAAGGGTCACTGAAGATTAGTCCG          rule met
1  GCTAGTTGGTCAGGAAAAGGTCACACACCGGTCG          rule met
2  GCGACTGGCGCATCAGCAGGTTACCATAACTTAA      rule not met
3  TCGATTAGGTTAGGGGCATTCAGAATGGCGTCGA          rule met
4  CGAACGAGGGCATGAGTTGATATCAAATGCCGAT      rule not met

*Q* Hi team, for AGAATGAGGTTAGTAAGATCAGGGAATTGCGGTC , is the recorded PBM binding z-score at or above 1?
*A* rule not met

*Q* What do we get for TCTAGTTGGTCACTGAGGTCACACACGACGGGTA ?
*A* rule met

*Q* What do we get for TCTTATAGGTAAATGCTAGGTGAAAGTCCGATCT ?
*A* rule met

*Q* What do we get for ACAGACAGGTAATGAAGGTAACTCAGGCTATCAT ?
*A* rule not met

*Q* What do we get for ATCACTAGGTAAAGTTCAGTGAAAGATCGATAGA ?
*A* rule met

*Q* What do we get for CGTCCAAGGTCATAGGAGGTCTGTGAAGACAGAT ?
*A* rule met

*Q* What do we get for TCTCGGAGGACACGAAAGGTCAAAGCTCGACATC ?
*A* rule met

----------
# Tested on: LXRb:RXRa (NR concentration 270 nM, RXRa partner concentration 90 nM)
# MEASUREMENT_PROTOCOL: PBM binding z-score (relative to random genomic background probes); higher = stronger binding; sequences stand for … in GC…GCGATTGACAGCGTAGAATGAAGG
Response key: Fulfilled means PBM binding z-score >= 2; Not fulfilled means PBM binding z-score < 2.

Worked cases, answers included:
In [3]: df
Out[3]:
                             sequence  class_assignment
0  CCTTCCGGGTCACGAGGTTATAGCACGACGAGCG         Fulfilled
1  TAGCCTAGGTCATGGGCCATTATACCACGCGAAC         Fulfilled
2  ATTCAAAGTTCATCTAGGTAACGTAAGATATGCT         Fulfilled
3  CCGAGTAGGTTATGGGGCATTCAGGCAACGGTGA     Not fulfilled
4  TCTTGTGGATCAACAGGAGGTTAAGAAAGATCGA     Not fulfilled
5  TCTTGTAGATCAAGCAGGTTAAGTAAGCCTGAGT     Not fulfilled
6  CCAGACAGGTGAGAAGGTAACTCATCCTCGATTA     Not fulfilled
7  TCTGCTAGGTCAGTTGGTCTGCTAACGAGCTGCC     Not fulfilled

*Q* Hi team, for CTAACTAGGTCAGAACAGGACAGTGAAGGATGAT , is the recorded PBM binding z-score at or above 2?
*A* Not fulfilled

*Q* What do we get for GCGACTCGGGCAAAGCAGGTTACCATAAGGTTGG ?
*A* Not fulfilled

*Q* What do we get for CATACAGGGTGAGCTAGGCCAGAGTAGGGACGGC ?
*A* Not fulfilled

*Q* What do we get for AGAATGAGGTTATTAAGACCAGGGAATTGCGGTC ?
*A* Not fulfilled

*Q* What do we get for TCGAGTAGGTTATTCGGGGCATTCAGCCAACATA ?
*A* Not fulfilled

*Q* What do we get for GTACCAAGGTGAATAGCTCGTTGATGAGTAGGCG ?
*A* Not fulfilled

*Q* What do we get for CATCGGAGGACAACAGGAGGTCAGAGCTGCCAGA ?
*A* Not fulfilled

*Q* What do we get for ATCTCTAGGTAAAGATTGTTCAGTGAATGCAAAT ?
*A* Not fulfilled

*Q* What do we get for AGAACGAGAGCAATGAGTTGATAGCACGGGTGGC ?
*A* Not fulfilled

*Q* What do we get for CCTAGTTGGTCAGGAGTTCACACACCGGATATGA ?
*A* Not fulfilled

*Q* What do we get for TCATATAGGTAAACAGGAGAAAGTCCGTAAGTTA ?
*A* Not fulfilled

*Q* What do we get for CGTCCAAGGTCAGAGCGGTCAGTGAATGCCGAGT ?
*A* Fulfilled

*Q* What do we get for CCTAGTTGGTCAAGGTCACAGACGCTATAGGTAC ?
*A* Fulfilled

----------
# Tested on: PXR:RXRa (NR concentration 270 nM, RXRa partner concentration 90 nM)
# MEASUREMENT_PROTOCOL: PBM binding z-score (relative to random genomic background probes); higher = stronger binding; sequences stand for … in GC…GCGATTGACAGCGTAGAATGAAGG
# PBM binding z-score per entry

>>> df
                             sequence  readout_value
0  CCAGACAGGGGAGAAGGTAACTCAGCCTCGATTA         -0.427
1  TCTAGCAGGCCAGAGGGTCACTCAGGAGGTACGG           1.35
2  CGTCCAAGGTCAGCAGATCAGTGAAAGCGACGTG           2.49
3  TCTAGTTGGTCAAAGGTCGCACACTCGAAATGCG           3.78
4  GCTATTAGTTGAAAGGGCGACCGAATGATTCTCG           -0.1

*Q* For the record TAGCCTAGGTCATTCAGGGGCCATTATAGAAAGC , what value of PBM binding z-score is listed for PXR:RXRa (NR concentration 270 nM, RXRa partner concentration 90 nM)?
*A* 3.3

*Q* What do we get for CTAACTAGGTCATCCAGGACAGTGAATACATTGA ?
*A* 2.07

*Q* What do we get for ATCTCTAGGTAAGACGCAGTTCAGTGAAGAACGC ?
*A* 0.526

*Q* What do we get for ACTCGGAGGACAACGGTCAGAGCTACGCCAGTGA ?
*A* -0.539

*Q* What do we get for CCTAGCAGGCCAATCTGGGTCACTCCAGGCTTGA ?
*A* 0.543

*Q* What do we get for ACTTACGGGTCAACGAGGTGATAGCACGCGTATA ?
*A* 3.94

*Q* What do we get for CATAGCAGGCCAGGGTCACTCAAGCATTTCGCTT ?
*A* 2.93

----------
# PBM binding z-score per entry
# Tested on: PXR:RXRa (NR concentration 270 nM, RXRa partner concentration 90 nM)
# MEASUREMENT_PROTOCOL: PBM binding z-score (relative to random genomic background probes); higher = stronger binding; sequences stand for … in GC…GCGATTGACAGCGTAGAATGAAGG

# annotated cases, reported PBM binding z-score shown
>>> df
                             sequence   measured_parameter  readout_value
0  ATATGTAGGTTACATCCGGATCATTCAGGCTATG  PBM binding z-score           0.73
1  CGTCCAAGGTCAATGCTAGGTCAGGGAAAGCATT  PBM binding z-score           4.55

Moving on to another sequence below.
*Q* Report PBM binding z-score for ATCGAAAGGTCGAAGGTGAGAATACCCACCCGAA please.
*A* 3.1
